tested target: JNK3α1 (Homo sapiens, UniProt P53779)
Sequence (P53779 1-422 isoform P53779-2): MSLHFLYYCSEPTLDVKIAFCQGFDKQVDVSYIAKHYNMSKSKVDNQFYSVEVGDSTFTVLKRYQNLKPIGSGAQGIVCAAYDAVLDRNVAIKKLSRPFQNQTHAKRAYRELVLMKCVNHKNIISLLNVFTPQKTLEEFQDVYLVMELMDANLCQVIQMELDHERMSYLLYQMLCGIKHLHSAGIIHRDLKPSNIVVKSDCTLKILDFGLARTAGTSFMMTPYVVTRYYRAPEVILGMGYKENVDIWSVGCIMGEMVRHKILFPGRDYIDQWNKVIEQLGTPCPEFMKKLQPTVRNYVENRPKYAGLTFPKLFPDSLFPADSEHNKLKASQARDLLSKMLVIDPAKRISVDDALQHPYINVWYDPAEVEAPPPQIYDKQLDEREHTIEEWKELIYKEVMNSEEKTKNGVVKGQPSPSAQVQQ
Assay type: biochemical
particulars: mean of ≥2 experiments; read-out: Biochemical inhibition IC50 JNK3
pIC50: −log10 of the molar value.
Classification field: met = pIC50 at or over 7; not met = pIC50 under 7.

compound structure string	tested target	category label
CC1(NC(=O)c2cc(-n3cc(NC(=O)Nc4ccccc4Cl)cn3)cs2)COC1	JNK3α1 (Homo sapiens, UniProt P53779)	met
O=C(Nc1cnn(-c2csc(C(=O)NC3CNC3)c2)c1)Nc1ccccc1Cl	JNK3α1 (Homo sapiens, UniProt P53779)	met
CN1CC[C@H](CNC(=O)c2cc(-n3cc(NC(=O)Nc4ccccc4Cl)cn3)cs2)C1	JNK3α1 (Homo sapiens, UniProt P53779)	not met
O=C(Nc1cnn(-c2cc(C(=O)NC3CNC3)cs2)c1)Nc1ccccc1Cl	JNK3α1 (Homo sapiens, UniProt P53779)	not met
O=C(Nc1cnn(-c2csc(C(=O)NC3CCOCC3)c2)c1)Nc1ccccc1Cl	JNK3α1 (Homo sapiens, UniProt P53779)	met
O=C(Nc1cnn(-c2ccc(C(=O)NC3CNC3)s2)c1)Nc1ccccc1Cl	JNK3α1 (Homo sapiens, UniProt P53779)	not met
CC(C)N1CC[C@H](NC(=O)c2cc(-n3cc(NC(=O)Nc4ccccc4Cl)cn3)cs2)C1	JNK3α1 (Homo sapiens, UniProt P53779)	met
CN1CC[C@H](NC(=O)c2cc(-n3cc(NC(=O)Nc4ccccc4Cl)cn3)cs2)C1	JNK3α1 (Homo sapiens, UniProt P53779)	met
O=C(Nc1cnn(-c2csc(C(=O)NC3COC3)c2)c1)Nc1ccccc1Cl	JNK3α1 (Homo sapiens, UniProt P53779)	met
O=C(Nc1cnn(-c2csc(C(=O)NCC3CCOCC3)c2)c1)Nc1ccccc1Cl	JNK3α1 (Homo sapiens, UniProt P53779)	met

* * *

tested target: CYP3A4 (Homo sapiens, UniProt P08684)
Sequence (P08684 whole entry): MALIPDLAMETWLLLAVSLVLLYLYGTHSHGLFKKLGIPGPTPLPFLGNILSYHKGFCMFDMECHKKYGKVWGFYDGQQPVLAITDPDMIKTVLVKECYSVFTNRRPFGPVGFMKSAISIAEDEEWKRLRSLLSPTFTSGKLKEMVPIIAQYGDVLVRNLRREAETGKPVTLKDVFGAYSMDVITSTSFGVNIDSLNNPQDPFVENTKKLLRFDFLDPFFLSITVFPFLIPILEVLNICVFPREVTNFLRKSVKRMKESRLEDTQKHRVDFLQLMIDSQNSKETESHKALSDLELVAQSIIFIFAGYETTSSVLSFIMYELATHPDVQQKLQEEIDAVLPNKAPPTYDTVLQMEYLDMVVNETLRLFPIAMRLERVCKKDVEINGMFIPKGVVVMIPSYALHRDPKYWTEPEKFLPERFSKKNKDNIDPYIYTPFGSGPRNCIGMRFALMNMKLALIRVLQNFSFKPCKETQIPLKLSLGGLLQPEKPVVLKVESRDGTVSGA
experiment summary: P450 cocktail inhibition assay, CYP3A4
Format: in vitro ADME
particulars: at 10 μM
// Not satisfied strictly below -20% in CYP-450 % inh. 3A4; Satisfied otherwise

compound structure string	category label
O=C(Nc1cnn(-c2csc(C(=O)NC3CCOCC3)c2)c1)Nc1ccccc1Cl	Not satisfied
O=C(Nc1cnn(-c2csc(C(=O)NCC3CCOCC3)c2)c1)Nc1ccccc1Cl	Satisfied
CN1CC[C@H](NC(=O)c2cc(-n3cc(NC(=O)Nc4ccccc4Cl)cn3)cs2)C1	Satisfied
O=C(Nc1cnn(-c2csc(C(=O)NC3CC3)c2)c1)Nc1ccccc1Cl	Not satisfied
O=C(Nc1cnn(-c2csc(C(=O)NC3COC3)c2)c1)Nc1ccccc1Cl	Not satisfied
O=C(Nc1cnn(-c2csc(C(=O)NC3COC3)c2)c1)Nc1ccc(F)cc1Cl	Satisfied
CN1CCC(NC(=O)c2cc(-n3cc(NC(=O)Nc4ccccc4Cl)cn3)cs2)CC1	Not satisfied
Cc1sc(C(=O)NC2COC2)cc1-n1cc(NC(=O)Nc2c(F)cccc2Cl)cn1	Satisfied
Cc1sc(C(=O)N[C@@H]2CCOC2)cc1-n1cc(NC(=O)Nc2c(F)cccc2Cl)cn1	Satisfied
O=C(Nc1cnn(-c2csc(C(=O)NC3COC3)c2)c1)Nc1c(F)cccc1Cl	Satisfied

* * *

tested target: JNK2 (Homo sapiens)
Sequence (P45984 whole entry): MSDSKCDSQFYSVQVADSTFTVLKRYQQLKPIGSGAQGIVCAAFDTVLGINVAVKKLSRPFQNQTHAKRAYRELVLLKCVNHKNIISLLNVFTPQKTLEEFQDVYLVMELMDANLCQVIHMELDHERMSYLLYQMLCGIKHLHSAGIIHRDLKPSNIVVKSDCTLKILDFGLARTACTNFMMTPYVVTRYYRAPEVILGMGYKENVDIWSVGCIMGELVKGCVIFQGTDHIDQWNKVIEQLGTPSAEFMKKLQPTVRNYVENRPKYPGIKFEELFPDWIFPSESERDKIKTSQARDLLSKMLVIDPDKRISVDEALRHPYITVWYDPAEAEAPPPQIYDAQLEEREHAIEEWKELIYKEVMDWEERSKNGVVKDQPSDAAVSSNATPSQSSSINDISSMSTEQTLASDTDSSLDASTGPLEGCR
Catalogue of IC50 readings, one per entry.
test readout: IC50 (µM)

compound	unit of measure	val
O=C(Nc1cnn(-c2csc(C(=O)NC3CCOCC3)c2)c1)Nc1ccccc1Cl [Compound 15]	µM	1.05
O=C(Nc1cnn(-c2csc(C(=O)NC3CC3)c2)c1)Nc1ccccc1Cl [Compound 8]	µM	3.2
O=C(Nc1cnn(-c2csc(C(=O)NC3COC3)c2)c1)Nc1ccccc1Cl [Compound 17]	µM	1.36
O=C(Nc1cnn(-c2csc(C(=O)NCC3CCOCC3)c2)c1)Nc1ccccc1Cl [Compound 24]	µM	0.81
O=C(Nc1cnn(-c2csc(C(=O)N[C@@H]3CCOC3)c2)c1)Nc1ccccc1Cl [Compound 16]	µM	2.02
CN1CCC(NC(=O)c2cc(-n3cc(NC(=O)Nc4ccccc4Cl)cn3)cs2)CC1 [Compound 14]	µM	2.77
CN1CC[C@H](NC(=O)c2cc(-n3cc(NC(=O)Nc4ccccc4Cl)cn3)cs2)C1 [Compound 12]	µM	1.51

* * *

Below, each entry is listed alongside its reported R: ratio of IC50 values of JNK1 over JNK3.
tested target: UniProt:P45983
Sequence (P45983 whole entry): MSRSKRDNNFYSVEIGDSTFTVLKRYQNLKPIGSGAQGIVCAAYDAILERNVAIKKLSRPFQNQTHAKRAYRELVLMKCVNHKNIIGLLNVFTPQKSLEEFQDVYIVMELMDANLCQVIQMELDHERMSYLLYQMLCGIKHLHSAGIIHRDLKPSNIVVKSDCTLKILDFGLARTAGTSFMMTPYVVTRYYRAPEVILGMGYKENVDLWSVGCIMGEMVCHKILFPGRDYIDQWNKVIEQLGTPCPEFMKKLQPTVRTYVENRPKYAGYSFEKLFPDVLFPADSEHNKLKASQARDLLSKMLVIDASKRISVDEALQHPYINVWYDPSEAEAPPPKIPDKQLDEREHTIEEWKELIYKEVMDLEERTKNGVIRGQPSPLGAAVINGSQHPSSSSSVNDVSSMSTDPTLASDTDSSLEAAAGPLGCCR
experiment summary: JNK1 homogeneous time-resolved fluorescence enzyme inhibition assay
Format: biochemical
particulars: isoform selectivity against JNK1
test readout: R: ratio of IC50 values of JNK1 over JNK3

compound	val
O=C(Nc1cnn(-c2csc(C(=O)NC[C@H]3CCOC3)c2)c1)Nc1ccccc1Cl [Compound 22]	31
CN1CCC(CNC(=O)c2cc(-n3cc(NC(=O)Nc4ccccc4Cl)cn3)cs2)CC1 [Compound 19]	41
O=C(Nc1cnn(-c2csc(C(=O)NCC3CCOCC3)c2)c1)Nc1ccccc1Cl [Compound 24]	63
O=C(Nc1cnn(-c2csc(C(=O)N[C@@H]3CCOC3)c2)c1)Nc1ccccc1Cl [Compound 16]	188
CC(C)N1CC[C@H](NC(=O)c2cc(-n3cc(NC(=O)Nc4ccccc4Cl)cn3)cs2)C1 [Compound 13]	60
CN1CCC[C@H]1CNC(=O)c1cc(-n2cc(NC(=O)Nc3ccccc3Cl)cn2)cs1 [Compound 23]	107
[2H]C([2H])([2H])N1CC[C@@H](NC(=O)c2cc(-n3cc(NC(=O)Nc4ccccc4Cl)cn3)cs2)C1 [Compound 11]	61
CN1CC[C@@H](NC(=O)c2cc(-n3cc(NC(=O)Nc4ccccc4Cl)cn3)cs2)C1 [Compound 10]	60
O=C(Nc1cnn(-c2csc(C(=O)NC3CC3)c2)c1)Nc1ccccc1Cl [Compound 8]	93
O=C(Nc1cnn(-c2csc(C(=O)NC3CNC3)c2)c1)Nc1ccccc1Cl [Compound 6]	72

* * *

tested target: CYP1A2 (Homo sapiens)
experiment summary: P450 cocktail inhibition assay, CYP1A2
Format: in vitro ADME
particulars: at 10 μM
test readout: CYP-450 % inh. 1A2 (%)

compound structure string	unit of measure	val
O=C(Nc1cnn(-c2csc(C(=O)NC3CCOCC3)c2)c1)Nc1ccccc1Cl	%	32
O=C(Nc1cnn(-c2csc(C(=O)N[C@@H]3CCOC3)c2)c1)Nc1ccccc1Cl	%	17
O=C(Nc1cnn(-c2csc(C(=O)NC3COC3)c2)c1)Nc1c(F)cccc1Cl	%	36

* * *

tested target: CYP1A2 (Homo sapiens, UniProt P05177)
Sequence (P05177 whole entry): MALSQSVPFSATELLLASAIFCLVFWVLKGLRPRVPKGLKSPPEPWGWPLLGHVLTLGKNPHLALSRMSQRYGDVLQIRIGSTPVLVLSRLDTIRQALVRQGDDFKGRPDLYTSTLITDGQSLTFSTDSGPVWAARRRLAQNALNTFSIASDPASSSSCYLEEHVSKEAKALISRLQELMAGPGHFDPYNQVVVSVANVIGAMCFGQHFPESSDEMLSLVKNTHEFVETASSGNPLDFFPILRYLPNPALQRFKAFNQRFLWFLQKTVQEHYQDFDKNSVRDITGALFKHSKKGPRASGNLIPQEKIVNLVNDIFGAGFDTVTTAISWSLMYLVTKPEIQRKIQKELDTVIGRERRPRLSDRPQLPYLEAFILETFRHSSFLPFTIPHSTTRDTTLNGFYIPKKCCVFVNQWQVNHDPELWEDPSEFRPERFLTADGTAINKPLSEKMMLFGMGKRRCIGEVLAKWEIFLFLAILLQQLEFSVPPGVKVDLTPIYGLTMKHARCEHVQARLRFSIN
experiment summary: P450 cocktail inhibition assay, CYP1A2
Assay type: in vitro ADME
particulars: at 10 μM
Given measured CYP-450 % inh. 1A2, output MET if it is greater than or equal to 20% and NOT MET if not.

compound structure string	category label
O=C(Nc1cnn(-c2csc(C(=O)NC3COC3)c2)c1)Nc1ccccc1Cl	NOT MET
O=C(Nc1cnn(-c2csc(C(=O)NC3CC3)c2)c1)Nc1ccccc1Cl	NOT MET
Cc1sc(C(=O)NC2COC2)cc1-n1cc(NC(=O)Nc2c(F)cccc2Cl)cn1	MET
CN1CCC(NC(=O)c2cc(-n3cc(NC(=O)Nc4ccccc4Cl)cn3)cs2)CC1	NOT MET
CN1CC[C@H](NC(=O)c2cc(-n3cc(NC(=O)Nc4ccccc4Cl)cn3)cs2)C1	NOT MET
O=C(Nc1cnn(-c2csc(C(=O)NCC3CCOCC3)c2)c1)Nc1ccccc1Cl	MET
Cc1sc(C(=O)N[C@@H]2CCOC2)cc1-n1cc(NC(=O)Nc2c(F)cccc2Cl)cn1	MET
O=C(Nc1cnn(-c2csc(C(=O)NC3COC3)c2)c1)Nc1ccc(F)cc1Cl	MET

* * *

Test system: SHSY5Y cells
experiment summary: MTT cytotoxicity assay;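 also: compounds tested at 10 µM final concentration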
Type: cell-based
Set-up: dose or concentration left out as unconfirmed
particulars: 48 hrs, average of ≥2 experiments

compound structure string	MTT cell viability (%)
O=C(Nc1cnn(-c2csc(C(=O)N[C@@H]3CCOC3)c2)c1)Nc1ccccc1Cl	112
Cc1sc(C(=O)N[C@@H]2CCOC2)cc1-n1cc(NC(=O)Nc2c(F)cccc2Cl)cn1	114
O=C(Nc1cnn(-c2csc(C(=O)NC3COC3)c2)c1)Nc1c(F)cccc1Cl	102

* * *

Measured CYP-450 % inh. 2D6 of individual entries
tested target: CYP2D6 (Homo sapiens, UniProt P10635)
Sequence (P10635 whole entry): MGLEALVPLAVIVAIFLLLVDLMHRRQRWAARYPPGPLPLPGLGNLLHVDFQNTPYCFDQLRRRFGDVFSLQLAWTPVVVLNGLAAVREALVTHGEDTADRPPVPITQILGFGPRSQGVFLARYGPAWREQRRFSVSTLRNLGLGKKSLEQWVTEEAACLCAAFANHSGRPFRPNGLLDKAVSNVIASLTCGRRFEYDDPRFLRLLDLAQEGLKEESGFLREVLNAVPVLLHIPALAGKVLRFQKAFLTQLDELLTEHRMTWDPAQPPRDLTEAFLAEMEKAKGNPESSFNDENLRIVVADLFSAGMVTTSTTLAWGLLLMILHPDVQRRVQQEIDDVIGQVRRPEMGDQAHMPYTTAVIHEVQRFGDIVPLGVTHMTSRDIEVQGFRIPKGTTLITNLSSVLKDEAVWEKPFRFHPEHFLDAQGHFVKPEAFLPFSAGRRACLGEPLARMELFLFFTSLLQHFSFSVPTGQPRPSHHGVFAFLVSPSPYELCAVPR
experiment summary: P450 cocktail inhibition assay, CYP2D6
Type: in vitro ADME
particulars: at 10 μM

compound	CYP-450 % inh. 2D6 (%)
O=C(Nc1cnn(-c2csc(C(=O)NC3CC3)c2)c1)Nc1ccccc1Cl [Compound 8]	−29
O=C(Nc1cnn(-c2csc(C(=O)NCC3CCOCC3)c2)c1)Nc1ccccc1Cl [Compound 24]	32
CN1CCC(NC(=O)c2cc(-n3cc(NC(=O)Nc4ccccc4Cl)cn3)cs2)CC1 [Compound 14]	−5
Cc1sc(C(=O)NC2COC2)cc1-n1cc(NC(=O)Nc2c(F)cccc2Cl)cn1 [Compound 27]	1
O=C(Nc1cnn(-c2csc(C(=O)NC3COC3)c2)c1)Nc1ccc(F)cc1Cl [Compound 26]	30
O=C(Nc1cnn(-c2csc(C(=O)N[C@@H]3CCOC3)c2)c1)Nc1ccccc1Cl [Compound 16]	1
O=C(Nc1cnn(-c2csc(C(=O)NC3COC3)c2)c1)Nc1ccccc1Cl [Compound 17]	−15
O=C(Nc1cnn(-c2csc(C(=O)NC3COC3)c2)c1)Nc1c(F)cccc1Cl [Compound 25]	31
Cc1sc(C(=O)N[C@@H]2CCOC2)cc1-n1cc(NC(=O)Nc2c(F)cccc2Cl)cn1 [Compound 28]	17
O=C(Nc1cnn(-c2csc(C(=O)NC3CCOCC3)c2)c1)Nc1ccccc1Cl [Compound 15]	0
CN1CC[C@H](NC(=O)c2cc(-n3cc(NC(=O)Nc4ccccc4Cl)cn3)cs2)C1 [Compound 12]	20
